Biological target: c-fms (Homo sapiens)
Construct: 3DP
Assay: autophosphorylation, fluorescence polarization competition immunoassay for c-fms inhibition
Assay type: biochemical
Conditions: 10 nM c-fms, 1 mM ATP; averages of three independent measurements; read-out: IC50
Protocol: The assay was performed in black 96-well microplates (LJL BioSystems). The assay buffer used was 100 mM HEPES, pH 7.5, 1 mM DTT, 0.01% (v/v) Tween-20. Compounds were diluted in assay buffer containing 4% DMSO just prior to the assay. […] The kinase reaction was initiated by adding 2 μL of 5 mM ATP (Sigma) in assay buffer. […] The plates were incubated at room temperature for 45 min. […] The plate was covered, incubated for 30 min at room temperature and the fluorescence polarization was read on the Analyst. […]
pIC50: −log10 of the molar value.
Would you kindly list pIC50 for each of these compounds?

Could you share which pIC50 value was measured for "O=C(Nc1cc(CO)ccc1N1CCCCC1)c1ccc([N+](=O)[O-])o1" ?
> 6.00

Could you share which pIC50 value was measured for "O=C(Nc1ccccc1N1CCCCC1)c1ccc(Br)o1" ?
< 6.00

Could you share which pIC50 value was measured for "N#Cc1ccc(N2CCCCC2)c(NC(=O)c2ccc(C#N)o2)c1" ?
> 6.00

Could you share which pIC50 value was measured for "O=C(Nc1ccccc1N1CCCCC1)c1cc([N+](=O)[O-])n[nH]1" ?
< 6.00

Could you share which pIC50 value was measured for "O=C(Nc1ccccc1N1CCCCCC1)c1ccc([N+](=O)[O-])o1" ?
> 6.00

Could you share which pIC50 value was measured for "Cc1cccc(N2CCCCC2)c1NC(=O)c1ccc(C#N)o1" ?
< 6.00

----------
Molecular target: c-fms (Homo sapiens)
Construct: 3DP
Assay: autophosphorylation, fluorescence polarization competition immunoassay for c-fms inhibition
Format: biochemical
Conditions: 10 nM c-fms, 1 mM ATP; averages of three independent measurements; read-out: IC50
outcome_measure: IC50

Look up IC50 with c-fms (Homo sapiens) for this molecule: "N#Cc1ccc(C(=O)Nc2ccccc2N2CCC(CCO)CC2)o1"
< 1000 nM

Look up IC50 with c-fms (Homo sapiens) for this molecule: "O=C(Nc1ccccc1N1CCC(CO)CC1)c1ccc([N+](=O)[O-])o1"
< 1000 nM

Look up IC50 with c-fms (Homo sapiens) for this molecule: CC1CCCN(c2ccccc2NC(=O)c2ccc([N+](=O)[O-])o2)C1 (stereo not shown)
< 1000 nM

Look up IC50 with c-fms (Homo sapiens) for this molecule: "N#Cc1ccc(C(=O)Nc2ccc(Cl)cc2N2CCCCC2)o1"
< 1000 nM

Look up IC50 with c-fms (Homo sapiens) for this molecule: "N#Cc1ccc(C(=O)Nc2ccccc2N2CCCCC2)o1"
< 1000 nM

Look up IC50 with c-fms (Homo sapiens) for this molecule: "N#Cc1ccc(C(=O)Nc2ccccc2N2CCC(O)CC2)o1"
> 1000 nM

Look up IC50 with c-fms (Homo sapiens) for this molecule: "O=C(Nc1ccccc1N1CCC(CCO)CC1)c1ccc([N+](=O)[O-])o1"
< 1000 nM

Look up IC50 with c-fms (Homo sapiens) for this molecule: "O=C(Nc1ccccc1N1CCCCC1)c1cc([N+](=O)[O-])c[nH]1"
< 1000 nM

Look up IC50 with c-fms (Homo sapiens) for this molecule: "O=C(Nc1ccccc1N1CCCCC1)c1cccc([N+](=O)[O-])c1"
> 1000 nM

Look up IC50 with c-fms (Homo sapiens) for this molecule: "N#Cc1ccc(C(=O)Nc2c(F)cccc2N2CCCCC2)o1"
> 1000 nM

Look up IC50 with c-fms (Homo sapiens) for this molecule: N#Cc1ccc(C(=O)Nc2cc(CNCC(O)CO)ccc2N2CCCCC2)o1 (stereo not shown)
< 1000 nM

Look up IC50 with c-fms (Homo sapiens) for this molecule: "O=C(O)c1ccc(C(=O)Nc2ccccc2N2CCCCC2)o1"
> 1000 nM

Look up IC50 with c-fms (Homo sapiens) for this molecule: "C[C@H]1CN(c2ccccc2NC(=O)c2ccc([N+](=O)[O-])o2)C[C@H](C)O1"
> 1000 nM

Look up IC50 with c-fms (Homo sapiens) for this molecule: "C[C@@H]1CN(c2ccccc2NC(=O)c2ccc([N+](=O)[O-])o2)C[C@H](C)O1"
> 1000 nM

Look up IC50 with c-fms (Homo sapiens) for this molecule: "COc1ccc(N2CCCCC2)c(NC(=O)c2ccc(C#N)o2)c1"
< 1000 nM

Look up IC50 with c-fms (Homo sapiens) for this molecule: "N#Cc1ccc(C(=O)Nc2ccc(F)cc2N2CCCCC2)o1"
< 1000 nM

Look up IC50 with c-fms (Homo sapiens) for this molecule: "O=C(Nc1cc(F)ccc1N1CCCCC1)c1ccc([N+](=O)[O-])o1"
< 1000 nM

Look up IC50 with c-fms (Homo sapiens) for this molecule: "CS(=O)(=O)NCc1ccc(N2CCCCC2)c(NC(=O)c2ccc(C#N)o2)c1"
< 1000 nM

Look up IC50 with c-fms (Homo sapiens) for this molecule: "O=C(Nc1ccccc1N1CCC(O)CC1)c1ccc([N+](=O)[O-])o1"
< 1000 nM

Look up IC50 with c-fms (Homo sapiens) for this molecule: "N#Cc1ccc(C(=O)Nc2ccccc2N2CCC(CO)CC2)o1"
< 1000 nM

Look up IC50 with c-fms (Homo sapiens) for this molecule: "O=C(Nc1ccccc1N1CCCCC1)c1cc([N+](=O)[O-])ccn1"
> 1000 nM

Look up IC50 with c-fms (Homo sapiens) for this molecule: "CC(=O)c1ccc(C(=O)Nc2ccccc2N2CCCCC2)s1"
> 1000 nM

Look up IC50 with c-fms (Homo sapiens) for this molecule: "O=C(Nc1ccccc1N1CCCCC1)c1n[nH]cc1[N+](=O)[O-]"
> 1000 nM

Look up IC50 with c-fms (Homo sapiens) for this molecule: "O=C(Nc1ccccc1N1CCCCC1)c1ccc(Cl)o1"
> 1000 nM

Look up IC50 with c-fms (Homo sapiens) for this molecule: "O=C(Nc1ccccc1N1CCOCC1)c1ccc([N+](=O)[O-])o1"
> 1000 nM

Look up IC50 with c-fms (Homo sapiens) for this molecule: "CC1CCN(c2ccccc2NC(=O)c2ccc(C#N)o2)CC1"
< 1000 nM

Look up IC50 with c-fms (Homo sapiens) for this molecule: "O=Cc1ccc(C(=O)Nc2ccccc2N2CCCCC2)o1"
> 1000 nM

Look up IC50 with c-fms (Homo sapiens) for this molecule: "CCOc1ccccc1NC(=O)c1ccc([N+](=O)[O-])o1"
> 1000 nM

----------
Would you kindly list inhibition at 2 µM for each of these molecules?
Target: c-fms (Homo sapiens)
Construct: 3DP
Assay: autophosphorylation, fluorescence polarization competition immunoassay for c-fms inhibition
Format: biochemical
Details: @ 2 μM compound (values marked *)
API: value field is a number in %; no unit string.

Look up inhibition at 2 µM with c-fms (Homo sapiens) for this molecule: "N#Cc1ccc(C(=O)Nc2ccc(F)cc2N2CCCCC2)o1"
94

Look up inhibition at 2 µM with c-fms (Homo sapiens) for this molecule: "N#Cc1ccc(C(=O)Nc2ccccc2N2CCC(CO)CC2)o1"
93

Look up inhibition at 2 µM with c-fms (Homo sapiens) for this molecule: "N#Cc1ccc(C(=O)Nc2ccccc2N2CCC(CCO)CC2)o1"
97

Look up inhibition at 2 µM with c-fms (Homo sapiens) for this molecule: "COc1ccc(N2CCCCC2)c(NC(=O)c2ccc(C#N)o2)c1"
99

Look up inhibition at 2 µM with c-fms (Homo sapiens) for this molecule: "N#Cc1ccc(C(=O)Nc2ccccc2N2CCC(O)CC2)o1"
90

Look up inhibition at 2 µM with c-fms (Homo sapiens) for this molecule: "N#Cc1ccc(C(=O)Nc2ccc(Cl)cc2N2CCCCC2)o1"
90

Look up inhibition at 2 µM with c-fms (Homo sapiens) for this molecule: "O=C(Nc1ccccc1N1CCCCC1)c1cc([N+](=O)[O-])n[nH]1"
50

Look up inhibition at 2 µM with c-fms (Homo sapiens) for this molecule: "N#Cc1ccc(N2CCCCC2)c(NC(=O)c2ccc(C#N)o2)c1"
95

Look up inhibition at 2 µM with c-fms (Homo sapiens) for this molecule: "CS(=O)(=O)NCc1ccc(N2CCCCC2)c(NC(=O)c2ccc(C#N)o2)c1"
100

Look up inhibition at 2 µM with c-fms (Homo sapiens) for this molecule: N#Cc1ccc(C(=O)Nc2cc(CNCC(O)CO)ccc2N2CCCCC2)o1 (stereo not shown)
93

----------
Target: c-fms (Homo sapiens, UniProt P07333)
Construct: 3DP
Sequence (P07333 20-972): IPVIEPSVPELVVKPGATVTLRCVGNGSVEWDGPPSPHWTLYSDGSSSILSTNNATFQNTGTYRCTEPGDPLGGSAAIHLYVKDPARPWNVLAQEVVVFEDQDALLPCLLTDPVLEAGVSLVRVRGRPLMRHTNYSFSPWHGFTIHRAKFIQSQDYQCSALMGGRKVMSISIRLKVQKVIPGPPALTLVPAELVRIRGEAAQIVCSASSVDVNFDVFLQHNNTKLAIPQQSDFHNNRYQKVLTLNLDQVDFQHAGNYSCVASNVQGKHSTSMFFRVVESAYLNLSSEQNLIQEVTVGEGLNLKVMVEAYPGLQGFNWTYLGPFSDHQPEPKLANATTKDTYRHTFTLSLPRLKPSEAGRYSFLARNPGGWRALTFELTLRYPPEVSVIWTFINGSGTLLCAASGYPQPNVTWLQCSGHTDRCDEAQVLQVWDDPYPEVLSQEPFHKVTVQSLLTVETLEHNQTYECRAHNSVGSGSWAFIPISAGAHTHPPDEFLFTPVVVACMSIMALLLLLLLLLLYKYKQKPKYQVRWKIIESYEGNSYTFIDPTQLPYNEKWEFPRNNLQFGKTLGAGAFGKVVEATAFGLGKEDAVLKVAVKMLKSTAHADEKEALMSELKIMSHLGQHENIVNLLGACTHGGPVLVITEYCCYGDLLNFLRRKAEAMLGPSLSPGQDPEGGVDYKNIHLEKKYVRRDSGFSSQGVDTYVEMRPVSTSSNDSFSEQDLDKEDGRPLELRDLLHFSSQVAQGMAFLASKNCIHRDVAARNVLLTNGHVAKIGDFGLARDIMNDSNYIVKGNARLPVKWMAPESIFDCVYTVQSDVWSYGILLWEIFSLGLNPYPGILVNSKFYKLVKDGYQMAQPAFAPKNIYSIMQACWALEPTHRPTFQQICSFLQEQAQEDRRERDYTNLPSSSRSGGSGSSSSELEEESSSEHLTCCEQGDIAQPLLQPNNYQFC
Experiment: autophosphorylation, fluorescence polarization competition immunoassay for c-fms inhibition
Assay type: biochemical
outcome_measure: IC50

Could you share which IC50 value was measured for "CC1CCN(c2ccccc2NC(=O)c2ccc([N+](=O)[O-])o2)CC1" ?
< 1 µM

----------
Would you kindly list inhibition at 10 µM for each of these compounds?
Molecular target: c-fms (Homo sapiens)
Construct: 3DP
Test: autophosphorylation, fluorescence polarization competition immunoassay for c-fms inhibition
Format: biochemical
Details: at 10 μM compound; read-out: % Inhibition (at 10 μM)

Could you share which inhibition at 10 µM value was measured for "O=C(Nc1ccccc1N1CCCCCC1)c1ccc([N+](=O)[O-])o1" ?
100%

Could you share which inhibition at 10 µM value was measured for "O=C(Nc1ccccc1N1CCC(CCO)CC1)c1ccc([N+](=O)[O-])o1" ?
100%

Could you share which inhibition at 10 µM value was measured for "O=C(Nc1ccccc1N1CCOCC1)c1ccc([N+](=O)[O-])o1" ?
89%

Could you share which inhibition at 10 µM value was measured for "N#Cc1ccc(C(=O)Nc2ccccc2N2CCCCC2)o1" ?
99%

Could you share which inhibition at 10 µM value was measured for "O=C(Nc1ccccc1N1CCCCC1)c1cccc([N+](=O)[O-])c1" ?
77%

Could you share which inhibition at 10 µM value was measured for "O=C(Nc1ccccc1N1CCCCC1)c1ccc(Cl)o1" ?
88%

Could you share which inhibition at 10 µM value was measured for "Cc1cccc(N2CCCCC2)c1NC(=O)c1ccc(C#N)o1" ?
50%

Could you share which inhibition at 10 µM value was measured for "CCOc1ccccc1NC(=O)c1ccc([N+](=O)[O-])o1" ?
56%

Could you share which inhibition at 10 µM value was measured for "O=C(Nc1ccccc1N1CCC(CO)CC1)c1ccc([N+](=O)[O-])o1" ?
100%

Could you share which inhibition at 10 µM value was measured for "CC(=O)c1ccc(C(=O)Nc2ccccc2N2CCCCC2)s1" ?
60%

Could you share which inhibition at 10 µM value was measured for "O=C(Nc1ccccc1N1CCCCC1)c1n[nH]cc1[N+](=O)[O-]" ?
61%

Could you share which inhibition at 10 µM value was measured for "O=C(Nc1cc(CO)ccc1N1CCCCC1)c1ccc([N+](=O)[O-])o1" ?
100%

Could you share which inhibition at 10 µM value was measured for "O=C(Nc1ccccc1N1CCCCC1)c1ccc(Br)o1" ?
68%

Could you share which inhibition at 10 µM value was measured for "O=C(Nc1ccccc1N1CCCCC1)c1cc([N+](=O)[O-])ccn1" ?
90%

Could you share which inhibition at 10 µM value was measured for "O=C(Nc1ccccc1N1CCCCC1)c1ccc([N+](=O)[O-])o1" ?
91%

Could you share which inhibition at 10 µM value was measured for "O=C(Nc1ccccc1N1CCC(O)CC1)c1ccc([N+](=O)[O-])o1" ?
98%

Could you share which inhibition at 10 µM value was measured for CC1CCCN(c2ccccc2NC(=O)c2ccc([N+](=O)[O-])o2)C1 (stereo not drawn) ?
96%

Could you share which inhibition at 10 µM value was measured for "N#Cc1ccc(C(=O)Nc2c(F)cccc2N2CCCCC2)o1" ?
61%

Could you share which inhibition at 10 µM value was measured for "C[C@@H]1CN(c2ccccc2NC(=O)c2ccc([N+](=O)[O-])o2)C[C@H](C)O1" ?
72%

Could you share which inhibition at 10 µM value was measured for "O=Cc1ccc(C(=O)Nc2ccccc2N2CCCCC2)o1" ?
86%

Could you share which inhibition at 10 µM value was measured for "O=C(Nc1ccccc1N1CCCCC1)c1cc([N+](=O)[O-])c[nH]1" ?
99%

Could you share which inhibition at 10 µM value was measured for "C[C@H]1CN(c2ccccc2NC(=O)c2ccc([N+](=O)[O-])o2)C[C@H](C)O1" ?
80%

Could you share which inhibition at 10 µM value was measured for "O=C(O)c1ccc(C(=O)Nc2ccccc2N2CCCCC2)o1" ?
24%

Could you share which inhibition at 10 µM value was measured for "CC1CCN(c2ccccc2NC(=O)c2ccc(C#N)o2)CC1" ?
97%

Recorded values, source patent US7790724B2.
